Cited source: PubChem BioAssay AID1159580

test_name: chemical genetic growth profiling, strain panel (AID 1159580);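 further: tested at 20 µM; growth read once vehicle control cultures reached saturation at 30 °C; 1 = growth at the plate median or of vehicle wells; lower values mean less growth of the strain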
measurement_context: S. cerevisiae deletion strains, growth OD, locus YMR219W, strain ESC1, stronger effect = lower value
In all, about 5,500 compounds went through this assay and about 2,000 (36%) were called active. Not shown: some 18% with an inconclusive outcome. The list shows a part of the results.
reported_metric: normalized growth

OC1(C(F)(F)F)CC(c2ccc3ccccc3c2)=NN1 (stereo unspecified)	0.258
Cc1cc(Br)c(NC(=O)C(Cl)(Cl)Cl)c(Br)c1	0.933
COc1cc(/C=C(\C#N)C(N)=S)cc(OC)c1OC	1.02
COc1ccccc1NC(=O)NCCSCc1ccccc1Cl	0.988
O=S(=O)(Oc1cc(Cl)cc(Cl)c1)c1cccc(S(=O)(=O)Oc2cc(Cl)cc(Cl)c2)c1	0.998
OC1(C(F)(F)F)CC(c2ccccc2)=NN1 (stereo unspecified)	0.976
